The reported numbers originate from patent US8846653B2.

# Tested on: MiaPaCa-2 cells
# test_protocol: MTS assay of MiaPaCa2 cultures, single 50 μM dose
# Format: cell-based, human
# experimental_conditions: MiaPaCa2, 50 μM, 48 hours, run 2
measurement_kind: MTS assay result, run 2
Number only, no unit.

Use these answered entries as a reference point.
In [3]: df
Out[3]:
                                   compound  observed_value
0  CC(C)=CCC/C(C)=C/CC/C(C)=C/CC[C@]1(C)CCc2cc(O)c(C)c(C)c2O1 [T3 gamma, gamma tocotrienol]           0.116
1        O=C(O)CCC(=O)O [SA, succinic acid]           0.335
2  Cc1c(C)c2c(c(C)c1O)CC[C@@](C)(CCC[C@H](C)CCC[C@H](C)CCCC(C)C)O2 [T alpha, alpha tocopherol]           0.313

**Q:** Entry CC(C)=CCC/C(C)=C/CC/C(C)=C/CC[C@]1(C)CCc2c(C)c(O)cc(C)c2O1 [T3 beta, beta tocotrienol] needs its MTS assay result, run 2 filled in; supply it.
**A:** 0.137

* * *

# Tested on: SW1990 pancreatic cancer cells
# test_protocol: MTS assay of SW1990 cultures, single 50 μM dose
# Assay type: cell-based, human
# experimental_conditions: SW1990, 50 μM, 72 hours, run 7
Here the recorded MTS assay result, run 7 is given for each entry.
Form: value (number only, do not type unit).

Worked cases, answers included:
                                   compound                     measured_on  observed_value
0  CC(C)=CCC/C(C)=C/CC/C(C)=C/CC/C(C)=C/CO [GG, geranylgeraniol]  SW1990 pancreatic cancer cells            0.65
1  Cc1c(O)cc2c(c1C)O[C@](C)(CCC[C@H](C)CCC[C@H](C)CCCC(C)C)CC2 [T gamma]  SW1990 pancreatic cancer cells            0.43
2  CC(C)=CCC/C(C)=C/CC/C(C)=C/CC[C@]1(C)CCc2cc(O)c(C)c(C)c2O1 [T3 gamma, gamma tocotrienol]  SW1990 pancreatic cancer cells            0.77
3  Cc1c(C)c2c(c(C)c1OC(=O)CCC(=O)O)CC[C@@](C)(CCC[C@H](C)CCC[C@H](C)CCCC(C)C)O2 [TS, tocopherol succinate]  SW1990 pancreatic cancer cells            0.85
4  CC(C)=CCC/C(C)=C/CC/C(C)=C/CC[C@]1(C)CCc2c(C)c(O)cc(C)c2O1 [T3 beta, beta tocotrienol]  SW1990 pancreatic cancer cells            0.28

**Q:** Please indicate MTS assay result, run 7 recorded for Cc1c(C)c2c(c(C)c1O)CC[C@@](C)(CCC[C@H](C)CCC[C@H](C)CCCC(C)C)O2 [T alpha, alpha tocopherol]
**A:** 0.38

**Q:** Could you please provide reported MTS assay result, run 7 for O=C(O)CCC(=O)O [SA, succinic acid] ? Thanks!
**A:** 0.4

**Q:** Consider the compound CC(C)=CCC/C(C)=C/CC/C(C)=C/CC[C@]1(C)CCc2cc(O)cc(C)c2O1 [T3 delta, delta tocotrienol] and give its recorded MTS assay result, run 7.
**A:** 0.52
